The measured values listed here are drawn from ChEMBL document CHEMBL1201862.

# System: MDA-MB-435
# Test Description: NCI tumour cell line growth inhibition, 48 h
Active and inactive are the calls of the source. No stated cut-off is given here; in the data, active = GI50 up to about 1.1 µM and inactive = higher.
I'd be grateful if you could share measured GI50 for these entries.

**Query** I would be grateful if you could share the reported GI50 for CCOC(=O)C(CC(C)C)NC(=O)CSc1nnc(COc2ccc(Cl)cc2)n1-c1ccccc1 (stereo not drawn) .
**Result** 16.9 µM (inactive)

**Query** I would be grateful if you could share the reported GI50 for COc1ccccc1NC(=O)C(=O)Cc1cnc2ccccc2n1 .
**Result** > 100 µM (inactive)

**Query** I would be grateful if you could share the reported GI50 for CN1CCC/C1=C1\C(=O)c2cccn2C1=O .
**Result** > 100 µM (inactive)
